measurementProtocol: chemical genetic growth profiling, strain panel (AID 1159580);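 note: tested at 20 µM; growth read once vehicle control cultures reached saturation at 30 °C; 1 = growth at the plate median or of vehicle wells; lower values mean less growth of the strain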
conditionsUsed: S. cerevisiae deletion strains, growth OD, locus YOR290C, strain snf2, stronger effect = lower value
Screen size: about 5,500 compounds; about 2,000 (36%) were called active. About 18% were inconclusive and are not listed. This is one part of the list.
Some compounds, each annotated with its measured normalized growth.
quantityName: normalized growth

- compound: "O=c1c2ccccc2[se]n1-c1ccccc1"
  measuredValue: 0.888
- compound: "CC1(C)O[C@@H]2CC3C4CCC5=CC(=O)C=C[C@]5(C)[C@@]4(F)[C@@H](O)C[C@]3(C)[C@]2(C(=O)CO)O1 (some centres undefined)"
  measuredValue: 0.979
- compound: "CC1=CCc2c(cc3oc(C)cc(=O)c3c2O)OC1"
  measuredValue: 0.979
- compound: "CC(=O)[C@H]1CCC2C3CC=C4C[C@@H](O)CC[C@]4(C)C3CC[C@@]21C (some centres undefined)"
  measuredValue: 0.947
- compound: "CCC(CCC(C)[C@H]1CCC2C3CC=C4C[C@@H](O)CC[C@]4(C)C3CC[C@@]21C)C(C)C (some centres undefined)"
  measuredValue: 1.02
- compound: "O=C1CC[C@]23C=CC(=O)NCCCCNCCCNC(=O)/C=C/c4ccc(c2c4)O[C@@H]3C1"
  measuredValue: 1.01
- compound: "CN(C)C(=O)Oc1cc(OC(=O)N(C)C)cc(C(O)CNC(C)(C)C)c1 (centres undefined)"
  measuredValue: 0.989
- compound: "CC(=O)[C@H]1CCC2C3CC=C4C[C@@H](OC(=O)CCC(=O)O)CC[C@]4(C)C3CC[C@@]21C (some centres undefined)"
  measuredValue: 0.908
- compound: "CCCN1C[C@H](CSC)C[C@@H]2c3cccc4[nH]cc(c34)C[C@H]21"
  measuredValue: 1
